Sourced from patent EP4415826B1

Here the recorded inhibition at 50 µM is given for each entry.
Test system: C6 glioma
Assay: MTT cell viability assay, C6
Assay type: cell-based
Settings: C6 glioma, 24 hours incubation
Give the figure together with its unit, number first.

// worked examples, inhibition at 50 µM included
S=C(Nc1ccccc1)N1CCN(c2nnc(-c3ccc(Cl)cc3)c(-c3ccc(Cl)cc3)n2)CC1 | 77.9%
S=C(Nc1ccc(Cl)cc1)N1CCN(c2nnc(-c3ccc(Cl)cc3)c(-c3ccc(Cl)cc3)n2)CC1 | 78.3%
COc1ccc(-c2nnc(N3CCN(C(=S)Nc4ccccc4)CC3)nc2-c2ccc(OC)cc2)cc1 | 63.7%

**Query** Give recorded inhibition at 50 µM with C6 glioma for the following compound: `S=C(Nc1ccccc1)N1CCN(c2nnc(-c3ccccc3)c(-c3ccccc3)n2)CC1`
**Result** 86.1%

**Query** Ok, now `O=[N+]([O-])c1ccc(NC(=S)N2CCN(c3nnc(-c4ccccc4)c(-c4ccccc4)n3)CC2)cc1`
**Result** 94.4%
